Recorded IC50 [pM] for RSV A2 Neutralization, Trial 6, one value per entry.
testedTarget: RSV-F of RSV subtype A strain A2 (1540) (respiratory syncytial virus subtype A, …, UniProt P03420 26-574)
measurementNotes: cell-based or functional assay
Use pM as the unit, but write only the number.

Take a look at these entries with their results.
- binder: "Control II (motavizumab sequence) (antibody, V domains shown) VH: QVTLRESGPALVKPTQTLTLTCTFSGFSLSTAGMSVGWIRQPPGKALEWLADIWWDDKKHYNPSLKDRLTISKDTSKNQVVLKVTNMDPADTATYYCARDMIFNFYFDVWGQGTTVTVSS VL: DIQMTQSPSTLSASVGDRVTITCSASSRVGYMHWYQQKPGKAPKLLIYDTSKLASGVPSRFSGSGSGTEFTLTISSLQPDDFATYYCFQGSGYPFTFGGGTKVEIKR"
  number: 12
- binder: "H1H3591P (antibody, V domains shown) VH: EVQLVESGGGLVQPGRSLRLSCAASGFTFDDYAMHWVRQTPGKGLEWISGISWSSGTIVYADSVKGRFTISRDNAKNSLYLQMNSLRGEDTALYHCAKDGYRWKSYSYGLDVWGQGTTVTVSS VL: EIVMTQSPATLSLSPGERATLSCRPSQSVINNLAWYQQKPGQAPRLLIFGASSRATGIPARFSGSGSGTEFTLTISSLQSEDFALYYCQQYNNWPLTFGGGTKVEIK"
  number: 8
- binder: "H1H3567P (antibody, V domains shown) VH: QVQLVQSGAEVKKPGASVKVSCKASGYTLTGYYLHWVRQAPGQGLEWMGWINPTSGGTNYAQKFQGRVTMTRDTSISAAFMELSRLRSDDTAVYHCAREFWPHGMDVWGQGTTVTVSS VL: AIQMTQSPSSLSASVGDRVTITCRASQAIRNDLGWYQQKPGKAPKLLIYASSSLQSGVPSRFSGSGSGTDFTLTISSLQPEDFATYYCLADYKYTWTFGQGTKVEIK"
  number: 390
- binder: "H1H3592P (antibody, V domains shown) VH: EVQLVESGGDLVQPGRSLRLSCVASGFTFDDYAMHWVRQAPGKGLEWVSGVSWSGSTVGYADSVKGRFTVSRDNAQKSLYLQMNSLRAEDTALYYCVKDAYKWNYYYYGLDVWGQGTTVTVSS VL: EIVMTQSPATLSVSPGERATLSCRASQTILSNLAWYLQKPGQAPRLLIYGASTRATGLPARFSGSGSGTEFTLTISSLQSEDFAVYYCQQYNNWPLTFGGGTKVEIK"
  number: 5
- binder: "Control I (palivizumab sequence) (antibody, V domains shown, also called Control 1; SYNAGIS) VH: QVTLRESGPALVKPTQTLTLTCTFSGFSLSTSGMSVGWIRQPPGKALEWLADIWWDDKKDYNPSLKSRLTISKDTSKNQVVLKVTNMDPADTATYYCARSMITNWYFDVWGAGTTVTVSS VL: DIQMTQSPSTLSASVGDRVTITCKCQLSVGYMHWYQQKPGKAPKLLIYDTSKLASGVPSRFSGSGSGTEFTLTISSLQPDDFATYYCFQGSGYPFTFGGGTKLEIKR"
  number: 500

// switching to the query binder
What the record says about H1M3627N (antibody, V domains shown) VH: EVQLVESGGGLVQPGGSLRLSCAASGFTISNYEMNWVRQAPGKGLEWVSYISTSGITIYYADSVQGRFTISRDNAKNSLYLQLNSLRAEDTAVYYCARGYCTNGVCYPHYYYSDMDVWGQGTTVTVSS VL: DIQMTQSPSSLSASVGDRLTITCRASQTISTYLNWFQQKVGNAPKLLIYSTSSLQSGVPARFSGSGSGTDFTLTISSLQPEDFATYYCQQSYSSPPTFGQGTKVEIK : IC50 [pM] for RSV A2 Neutralization, Trial 6 is 10
